Each entry below lists one item and its recorded normalized growth value.
test: chemical genetic growth profiling, strain panel (AID 1159580);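 also: tested at 20 µM; growth read once vehicle control cultures reached saturation at 30 °C; 1 = growth at the plate median or of vehicle wells; lower values mean less growth of the strain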; conditions: S. cerevisiae deletion strains, growth OD, locus YOR069W, strain VPS5, stronger effect = lower value
Screen size: about 5,500 compounds; about 2,000 (36%) were called active. Roughly 18% stayed inconclusive and do not appear here. The list shows a part of the results.

Some solved entries appear below for comparison.
# molecule, measurement_label, result
measured = [
    ("CCCc1nc2c(C)cc(-c3nc4ccccc4n3C)cc2n1Cc1ccc(-c2ccccc2C(=O)O)cc1", "normalized growth", "1.01 (inactive)"),
    ("CC1=CC(=O)C2=C(C)CC(O)C3C(C)C(=O)OC3C12 (stereo unspecified)", "normalized growth", "1 (inactive)"),
    ("COC1(C)CCC2OC2(C)CCC2C1CC2(C)C (stereo unspecified)", "normalized growth", "1.01 (inactive)"),
    ("CCCCc1nc(Cl)c(CO)n1Cc1ccc(-c2ccccc2-c2nn[nH]n2)cc1", "normalized growth", "1 (inactive)"),
    ("CN(C)CCc1c[nH]c2ccc(CS(=O)(=O)N3CCCC3)cc12", "normalized growth", "0.992 (inactive)"),
]

Could you tell me which normalized growth is on file for `O=C1c2ccccc2C(=O)C1c1ccccc1` ?
1 (inactive)
